- target_under_test: 11β-hsd-1 enzyme (Homo sapiens, UniProt P28845)
- Sequence (P28845 whole entry, species assumed): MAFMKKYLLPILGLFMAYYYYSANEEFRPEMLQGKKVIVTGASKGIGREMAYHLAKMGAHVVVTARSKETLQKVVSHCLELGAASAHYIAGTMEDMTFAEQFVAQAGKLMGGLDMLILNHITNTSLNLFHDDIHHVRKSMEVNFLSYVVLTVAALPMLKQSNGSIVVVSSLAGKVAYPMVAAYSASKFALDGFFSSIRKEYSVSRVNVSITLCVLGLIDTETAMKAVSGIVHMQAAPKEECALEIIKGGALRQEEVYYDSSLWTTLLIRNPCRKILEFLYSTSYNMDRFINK
- measurement_description: 11β-hsd-1 enzyme assay, percentage of inhibition (3H-cortisone to cortisol, radio-HPLC)
- Type: biochemical
- particulars: 0.1 uM; read-out: % inh @ 0.1 uM
Output fulfilled for inhibition at 0.1 µM not less than 90%; output not fulfilled otherwise.

[[record]]
sample_smiles = "Cc1cccc(NS(=O)(=O)c2cccc(C(F)(F)F)c2)n1"
target_under_test = "11β-hsd-1 enzyme (Homo sapiens, UniProt P28845)"
label = "not fulfilled"

[[record]]
sample_smiles = "COc1ccc(S(=O)(=O)Nc2cccc(C)n2)cc1"
target_under_test = "11β-hsd-1 enzyme (Homo sapiens, UniProt P28845)"
label = "not fulfilled"

[[record]]
sample_smiles = "CC(=O)Nc1ccc(-c2ccc(S(=O)(=O)Nc3cccc(C)n3)cc2)cc1"
target_under_test = "11β-hsd-1 enzyme (Homo sapiens, UniProt P28845)"
label = "not fulfilled"

[[record]]
sample_smiles = "Cc1cccc(NS(=O)(=O)c2ccc3ccc(Cl)cc3c2)n1"
target_under_test = "11β-hsd-1 enzyme (Homo sapiens, UniProt P28845)"
label = "not fulfilled"

[[record]]
sample_smiles = "Cc1c(S(=O)(=O)Nc2cccc(N)n2)sc2ccc(Cl)cc12"
target_under_test = "11β-hsd-1 enzyme (Homo sapiens, UniProt P28845)"
label = "fulfilled"

[[record]]
sample_smiles = "CCN(CC)C(=O)Cc1cccc(NS(=O)(=O)c2ccc(F)cc2)n1"
target_under_test = "11β-hsd-1 enzyme (Homo sapiens, UniProt P28845)"
label = "not fulfilled"

[[record]]
sample_smiles = "Cc1cccc(NS(=O)(=O)c2sc3ccc(F)cc3c2C)n1"
target_under_test = "11β-hsd-1 enzyme (Homo sapiens, UniProt P28845)"
label = "fulfilled"


Confirm if inhibition at 0.1 µM reported for the compound Cc1cccc(NS(=O)(=O)c2ccc(-c3cccc(C(C)C)c3)cc2C)n1 is 90% or above.
not fulfilled

* * *

- target_under_test: 11β-hsd-1 enzyme (Homo sapiens)
- measurement_description: 11β-hsd-1 enzyme assay, Kiapp determination (3H-cortisone to cortisol, radio-HPLC)
- Assay type: biochemical
- particulars: apparent Ki, 11β-hsd-1 enzyme; read-out: Ki app
property: Ki (nM)
Note: unit nM is implicit; provide only the numeric part.

[[record]]
sample_smiles = "Cc1cccc(NS(=O)(=O)c2ccc(-c3cc(F)c(F)c(F)c3)c(C)c2)n1"
readout_units = "nM"
recorded_number = 29

[[record]]
sample_smiles = "Cc1cccc(NS(=O)(=O)c2ccc(-c3cccc(C(C)C)c3)c(C)c2)n1"
readout_units = "nM"
recorded_number = 110

[[record]]
sample_smiles = "CCc1cccc(NS(=O)(=O)N2CCc3ccccc3C2)n1"
readout_units = "nM"
recorded_number = 7.6

[[record]]
sample_smiles = "Cc1cccc(NS(=O)(=O)c2ccc(-c3ccc(C(C)C)cc3)c(C)c2)n1"
readout_units = "nM"
recorded_number = 110

[[record]]
sample_smiles = "Cc1cccc(NS(=O)(=O)c2ccc(-c3ccc4c(c3)OCCO4)cc2C)n1"
readout_units = "nM"
recorded_number = 20


Now consider the entry below.
Cc1cccc(NS(=O)(=O)c2ccc(-c3ccccc3Cl)c(C)c2)n1 yielded Ki of 47

* * *

- target_under_test: 11β-hsd-1 enzyme (Homo sapiens)
- measurement_description: 11β-hsd-1 enzyme assay, percentage of inhibition (3H-cortisone to cortisol, radio-HPLC)
- Type: biochemical
- particulars: compound at 0.1 uM; read-out: % inh @ 0.1 uM
Output yes for inhibition at 0.1 µM not less than 70%; output no otherwise.

Illustrative cases are given below, each with its answer.
[[record]]
sample_smiles = "Cc1cccc(NS(=O)(=O)c2ccc(-c3ccc(F)cc3C)c(C)c2)n1"
label = "no"

[[record]]
sample_smiles = "Cc1nnc2n1CCN(S(=O)(=O)Nc1ccc3ccccc3n1)CC2"
label = "no"

[[record]]
sample_smiles = "CCCCc1ccc(-c2ccc(S(=O)(=O)Nc3cccc(C)n3)cc2C)cc1"
label = "no"

[[record]]
sample_smiles = "Cc1cccc(NS(=O)(=O)c2ccc(-c3ccc(C#N)cc3)c(C)c2)n1"
label = "yes"

[[record]]
sample_smiles = "Cc1cccc(NS(=O)(=O)N2Cc3ccccc3C2)n1"
label = "no"


Confirm if inhibition at 0.1 µM reported for the molecule Cc1cccc(NS(=O)(=O)c2ccc(-c3ccc(C#N)c(C)c3)cc2)n1 is 70% or above.
yes

Confirm if inhibition at 0.1 µM reported for the molecule Cc1cccc(N(CCN(C)C)S(=O)(=O)c2ccc(-c3ccc(C#N)cc3)cc2)n1 is 70% or above.
no

Confirm if inhibition at 0.1 µM reported for the molecule Cc1cccc(NS(=O)(=O)N2CCC(c3ccccc3)CC2)n1 is 70% or above.
yes

Confirm if inhibition at 0.1 µM reported for the molecule Cc1cc(-c2ccc(S(=O)(=O)Nc3cccc(N)n3)cc2)ccc1C#N is 70% or above.
yes

Confirm if inhibition at 0.1 µM reported for the molecule Cc1cccc(NS(=O)(=O)c2ccc(-c3ccc(C#N)cn3)cc2)n1 is 70% or above.
yes

Confirm if inhibition at 0.1 µM reported for the molecule Cc1cccc(NS(=O)(=O)c2ccc(-c3ccc(OCCN)cc3)cc2)n1 is 70% or above.
no

Confirm if inhibition at 0.1 µM reported for the molecule Cc1cc(C)nc(NS(=O)(=O)N2CCC(c3ccc(C#N)cc3)CC2)c1 is 70% or above.
yes

Confirm if inhibition at 0.1 µM reported for the molecule Cc1cccc(NS(=O)(=O)c2ccc(-c3ccc(Cl)cc3Cl)c(C)c2)n1 is 70% or above.
yes
